Target: T1, murine TIM-3 protein with hFc tag (mTIM-3-hFc protein) (mouse; human, UniProt Q8VIM0 29-191)
T1 construct: Made in HEK293 cells; also called mouse TIM-3 extracellular domain protein; not shown: human IgG Fc fragment (hFc) of the pCpC vector
T1 chain: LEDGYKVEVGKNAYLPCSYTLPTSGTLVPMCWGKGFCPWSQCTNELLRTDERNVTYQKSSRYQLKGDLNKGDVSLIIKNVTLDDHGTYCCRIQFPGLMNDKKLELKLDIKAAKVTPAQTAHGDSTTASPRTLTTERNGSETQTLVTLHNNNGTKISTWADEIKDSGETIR
Test: ELISA, coated mTIM-3-hFc; antibody 66.667 nM
The entries below come with measured OD450 values attached.
I only need the number, thanks.

Take a look at these entries with their results.
binder	measurement
134H3G6 (TIM-3 antibody purified from hybridoma, chimeric antibody of Example 2) (antibody, V domains shown, From hybridoma of Harbour H2L2 transgenic mice: human variable regions, rat constant regions) VH: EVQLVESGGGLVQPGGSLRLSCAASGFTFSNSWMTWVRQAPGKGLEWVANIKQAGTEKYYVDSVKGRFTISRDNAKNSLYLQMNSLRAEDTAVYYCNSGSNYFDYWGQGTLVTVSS VL: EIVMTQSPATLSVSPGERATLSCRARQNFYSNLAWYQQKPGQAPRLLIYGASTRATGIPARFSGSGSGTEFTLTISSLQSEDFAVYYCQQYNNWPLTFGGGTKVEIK	0.7
57F4E5 (TIM-3 antibody purified from hybridoma, chimeric antibody of Example 2) (antibody, V domains shown, From hybridoma of Harbour H2L2 transgenic mice: human variable regions, rat constant regions) VH: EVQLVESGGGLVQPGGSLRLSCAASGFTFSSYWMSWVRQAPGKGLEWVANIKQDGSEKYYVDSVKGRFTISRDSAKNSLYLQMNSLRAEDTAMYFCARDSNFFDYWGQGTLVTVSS VL: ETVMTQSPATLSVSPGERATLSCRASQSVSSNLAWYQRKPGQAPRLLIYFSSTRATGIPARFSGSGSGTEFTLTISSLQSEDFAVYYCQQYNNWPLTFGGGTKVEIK	0.74

As a next step, examine the binder that follows.
Problem: Return reported OD450; argument: 18D2H2 (TIM-3 antibody purified from hybridoma, chimeric antibody of Example 2) (antibody, V domains shown, From hybridoma of Harbour H2L2 transgenic mice: human variable regions, rat constant regions) VH: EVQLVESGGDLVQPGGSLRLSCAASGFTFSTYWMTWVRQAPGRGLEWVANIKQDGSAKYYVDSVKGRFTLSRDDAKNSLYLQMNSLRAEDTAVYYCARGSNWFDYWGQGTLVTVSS VL: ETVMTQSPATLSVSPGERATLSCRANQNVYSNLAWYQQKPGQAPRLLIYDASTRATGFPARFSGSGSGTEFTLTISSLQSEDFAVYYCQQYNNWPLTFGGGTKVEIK
Result: 0.85
